System: A498
protocol: NCI tumour cell line growth inhibition, 48 h
The source made the active and inactive calls. Rule as the data show it: active = GI50 up to about 1.1 µM and inactive = higher.
observed-property: GI50

CN(CCCN(C)Cc1ccc(Cl)c(Cl)c1)CCN1CCCC1 : 13.9 µM (inactive)
COc1ccc(NC(=O)CSc2nc(C)nc3c2sc(=S)n3-c2ccccc2)cc1 : 5 µM (inactive)
CN(C)C(=S)/N=c1\ss/c(=N\C(=S)N(C)C)n1-c1ccc2c(c1)OCO2 : > 100 µM (inactive)
OC(c1ccc(Cl)cc1)(c1ccc(Cl)cc1)c1cncnc1 : 21.2 µM (inactive)
CCOC(=O)c1c(SC(=O)c2ccc(C(C)(C)C)cc2)n(-c2ccccc2)c(=S)n(-c2ccccc2)c1=O : > 100 µM (inactive)

For CCOC(=O)c1cn2c(ccc3sc4ccccc4c(=O)c32)n1 , what is its reported GI50?
> 100 µM (inactive)

# get_value(readout='GI50', item= CCN1C2=NCCN2S(=O)(=O)c2ccccc21 )
> 100 µM (inactive)

What does the record list as GI50 for COc1ccccc1N1CCN(CCCNC(=O)c2cc(Cl)c(N)c(Cl)c2)CC1 ?
42 µM (inactive)

# GI50 lookup, item COc1cccc(C2c3cc4c(cc3OC(N3CCCCC3)C2C)OCO4)c1OC (stereo unspecified)
9.42 µM (inactive)

Which measured GI50 value corresponds to CC1(C)CO[P@@](=S)(c2ccccn2)O[C@@H]1c1ccccc1 ?
> 100 µM (inactive)

What value of GI50 has been reported for the following compound? CC(C)(C)NC(=O)N1N=C(c2ccccc2)C1c1ccccc1 (stereo unspecified)
> 100 µM (inactive)

###

Entries and their GI50 values follow.
System: CAKI-1
protocol: NCI tumour cell line growth inhibition, 48 h
Calls of active or inactive are those of the source. No stated cut-off is given here; in the data, active = GI50 up to about 1.1 µM and inactive = higher.

COc1cc(CCCOC(=O)/C=C/c2ccc(O)c(O)c2)cc(O)c1O : 58.3 µM (inactive)
CCC/C(Cl)=N\OC(=O)Nc1cccc(C(F)(F)F)c1 : 18.1 µM (inactive)
O=C1N[C@H](C(=O)O)[C@@H](c2ccc(OCc3ccccc3)cc2)O1 : 34.3 µM (inactive)

Lab note: need GI50 with CAKI-1 for entry O=c1[nH]c(=O)n(CCOc2ccc(Cl)cc2)cc1Nc1ccccc1 , please look it up.
> 100 µM (inactive)

What measured GI50 is associated with COc1cc(C2C(Cl)C(=O)N2NC(=O)c2ccc(NC(C)=O)cc2OC)ccc1O (stereo not given) on CAKI-1?
31.1 µM (inactive)

Request: GI50, test system CAKI-1, entry COC1/C=C/C(C)C(OC)CC(O)/C=C/C(C)C(C(C)C(OC)C(C)CCC(=O)C(C)C(C/C=C/N(C)C=O)OC)OC(=O)/C=C/C=C(\C)CC(OC)CC2=CC(=O)O[C@@H](C(C)C(OC)C1)[C@H]2O (stereo not given in full)
0.0332 µM (active)

Find the measured GI50: item COc1cccc2cc(C(C)=O)c(=O)oc12 , target or system CAKI-1.
> 100 µM (inactive)

Look up GI50 with CAKI-1 for this molecule: COc1cc2c(c(O)c1OC)C(=O)[C@@H]1CCC(=O)N1C2
> 100 µM (inactive)

Kindly state the measured GI50 obtained for CCN(CC)c1c(C)nnn1C1OC(COC(C)=O)C(OC(C)=O)C(OC(C)=O)C1OC(C)=O (stereo not given) with CAKI-1.
> 100 µM (inactive)

###

System: DLD-1
protocol: NCI tumour cell line growth inhibition, 48 h
Active and inactive are the calls of the source. No stated cut-off is given here; in the data, active = GI50 up to about 1.1 µM and inactive = higher.
Classes to choose from: active, inactive

Solved cases below.
O=C1CC(c2n[nH]c3ccccc23)C(=O)N1c1ccccc1 (centres undefined) : inactive
COC(=O)Nc1nc2cc(C(=O)c3cccs3)ccc2[nH]1 : active
O=C1C=CC(=O)c2ccc(=O)ccc21 : inactive
C#CCOc1c(C(=O)OCC)c(=O)n(C)c2ccccc12 : inactive
CCN(CC)CCCNC(=O)c1ccc([N+](=O)[O-])cc1O : inactive

So what was the verdict on CCc1c(OC(C)=O)c2c(NC3OCC(OC(C)=O)C(OC(C)=O)C3OC(C)=O)nc(SC)nc2oc1=O (centres undefined) in this test?
inactive

How did this test come out for Cc1c2cc[n+](C)cc2c(C)c2c1oc1ccccc12 ?
inactive

// outcome(item) with item = O=C(CC1C(=O)Nc2ccccc2S1(=O)=O)Nc1ccc(Cl)cc1 (centres undefined)
inactive

Called result for CC1C(=O)OC2CC[N+]3(CC(=O)c4ccc(Br)cc4)CC=C(COC(=O)C(C)(O)C1(C)O)C23 (centres undefined)
inactive

Which outcome was assigned to COC(=O)C(Cc1nc2ccc(Cl)cc2nc1O)C(=O)C(=O)Nc1ccccc1[N+](=O)[O-] (centres undefined) in this test?
inactive

Call for entry COc1ccc(C2C(C(=O)O)=C(CO)Oc3cc4c(cc32)OCO4)cc1 (centres undefined) :
inactive

Hi, sorry to bother you, what did the test record for C=C(C#N)C1OCC2OC(C)(C)OC21 (centres undefined) ?
inactive

###

Test system: SF-295
protocol: NCI tumour cell line growth inhibition, 48 h
Calls of active or inactive are those of the source. No stated cut-off is given here; in the data, active = GI50 up to about 1.1 µM and inactive = higher.
Lab note: assign the record to one of 1 for active, 0 for inactive

Some solved entries appear below for comparison.
CN/C(N)=N/N=C1/C(=O)Nc2ccccc21 : 0
N#CC(=C1CCN(CCCC(=O)c2ccc(F)cc2)CC1)c1ccccc1 : 0
Nc1nc2c(c(=O)[nH]1)C(c1ccccc1)CC(=O)N2 (configuration not stated) : 0
O=S(=O)(O)c1ccc(-c2c3nc(c(-c4ccc(S(=O)(=O)O)cc4)c4ccc([nH]4)c(-c4ccc(S(=O)(=O)O)cc4)c4nc(c(-c5ccc(S(=O)(=O)O)cc5)c5ccc2[nH]5)C=C4)C=C3)cc1 : 0

Lab note: next molecule to report on.
# fetch the recorded call for O=C1N[C@H](C(=O)O)[C@@H](c2ccc(OCc3ccccc3)cc2)O1 here
0

###

Some molecules, each annotated with its measured GI50.
Tested on: UO-31
protocol: NCI tumour cell line growth inhibition, 48 h
The source made the active and inactive calls. Cut-off read from the data, not from the text of the source: active = GI50 up to about 1.1 µM and inactive = higher.

O=C(O)c1ccccc1C(=O)c1ccc2c(c1)Cc1ccccc1-2 : > 100 µM (inactive)

Give the measured GI50 of CC(=O)OCc1ccc2c(c1)C(O)NC(=O)O2 (configuration not stated) .
> 100 µM (inactive)

Endpoint output: GI50 of CN(C)CC1CCC(CN(C)C)C1=O (configuration not stated) . Value?
7.67 µM (inactive)

Look up GI50: CC1C/C(=N\N(C)C)C(C#N)(C#N)C1(C#N)C#N (configuration not stated)
15.6 µM (inactive)

What does the record list as GI50 for O=c1oc2c3ccc4ccccc4c3n(CCCN3CCCCC3)c2c2ccccc12 ?
> 100 µM (inactive)

Fill in the blank: the reported GI50 of C[C@H]1C[C@@H]2[C@H]([C@@H](O)C[C@@]3(C)[C@H]2CC[C@]3(O)C(=O)CO)[C@@]2(C)C=CC(=O)C=C12 is ____.
> 100 µM (inactive)

Return reported GI50; argument: COc1cc2c(c(O)c1OC)C(=O)[C@@H]1CCC(=O)N1C2
> 100 µM (inactive)

###

Test system: NCI-H522
protocol: NCI tumour cell line growth inhibition, 48 h
Activity calls are given as the source filed them. No stated cut-off is given here; in the data, active = GI50 up to about 1.1 µM and inactive = higher.
Measured GI50 accompanies every entry in the list below.

COc1cc2c(c(O)c1OC)C(=O)[C@@H]1CCC(=O)N1C2 : > 100 µM (inactive)
CO[C@@H]1C=C[C@@]23c4cc5c(cc4CN(C[C@@H]2O)[C@H]3C1)OCO5 [(+)-HAEMANTHAMINE] : 12.1 µM (inactive)
O=C1c2ccccc2C(=O)c2sc(Nc3ccc(Cl)cc3)nc21 : 1.61 µM (inactive)

Give the measured GI50 of CC1(C)COC(c2ccc(C(F)(F)F)cc2C(O)c2ccc3ccccc3c2)=N1 (stereo unspecified) .
> 10 µM (inactive)

# query: GI50 of entry O=C(N/N=C/c1cc(Cl)cc(Cl)c1O)c1ccccc1O
0.254 µM (active)

Name the recorded GI50 for Cc1c2cccc-2c(OCCO)cc2c3ccccc3n(C)c12 .
2.18 µM (inactive)

Name the reported GI50 value associated with the compound O=C(O)[C@@H]1CCS(=O)(=O)N1
> 100 µM (inactive)

Using the record for Cc1ccc(S(=O)(=O)/N=C2/N(C)CCCS2(=O)=O)cc1 , report its GI50.
> 100 µM (inactive)

GI50 for N#CC(=C1CCN(CCCC(=O)c2ccc(F)cc2)CC1)c1ccccc1 ?
21.3 µM (inactive)

Would you kindly share the measured GI50 for CCOC(=O)C(CNc1ccc(O)cc1)NC(=O)c1ccccc1 (stereo unspecified) ?
75.3 µM (inactive)

Sample OC1c2ccccc2CCC1CN1CCN(CCOC(c2ccc(F)cc2)c2ccc(F)cc2)CC1 (stereo unspecified) — what was its GI50?
15.7 µM (inactive)

###

Test system: RPMI-8226
protocol: NCI tumour cell line growth inhibition, 48 h
Calls of active or inactive are those of the source. Cut-off read from the data, not from the text of the source: active = GI50 up to about 1.1 µM and inactive = higher.
observed-property: GI50

COc1ccc(OC)c2cc(C3(C)SCCCS3)ccc12 : 69.3 µM (inactive)

// next item, GI50 requested
Requested read-out GI50, target or system RPMI-8226, entry COC1[C@@H](OC(C)=O)[C@@H](NC(=O)C(Cl)(Cl)Cl)C(I)[C@@H](N2C(=O)c3ccccc3C2=O)[C@H]1OC (stereo not given in full)
> 100 µM (inactive)
